Hey, just so you know, these numbers are from patent US5698691A.

Target: squalene synthetase (Rattus norvegicus, UniProt Q02769)
Sequence (Q02769 whole entry): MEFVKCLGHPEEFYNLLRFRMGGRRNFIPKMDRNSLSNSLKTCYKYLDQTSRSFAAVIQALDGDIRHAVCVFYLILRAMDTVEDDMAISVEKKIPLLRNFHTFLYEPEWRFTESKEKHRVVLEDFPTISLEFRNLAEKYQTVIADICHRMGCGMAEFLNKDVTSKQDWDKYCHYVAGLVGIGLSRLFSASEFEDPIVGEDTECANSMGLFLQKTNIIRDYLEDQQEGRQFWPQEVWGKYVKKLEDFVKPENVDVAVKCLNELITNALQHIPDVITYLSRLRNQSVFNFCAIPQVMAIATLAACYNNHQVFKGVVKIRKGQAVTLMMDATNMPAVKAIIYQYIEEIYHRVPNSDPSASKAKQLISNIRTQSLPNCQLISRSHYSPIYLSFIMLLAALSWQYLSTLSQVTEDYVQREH
Entries and their measured IC50 follow.
MEASURED_PARAMETER: IC50 (nM)

                                   compound  measured_parameter  unit_label  experimental_result
0  CC(C)(C)CN1C(=O)[C@@H](CC(=O)NCC(=O)O)S[C@H](c2ccccc2Cl)c2cc(Cl)ccc21 (relative stereo) [Example 23]                IC50          nM                   22
1  COc1ccccc1C1SC(CC(=O)O)C(=O)N(CC(C)(C)C)c2ccc(Cl)cc21 (stereo not shown) [Example 10-8]                IC50          nM                   23
2  CCN1C(=O)[C@@H](CC(=O)O)S[C@H](c2ccccc2Cl)c2cc(Cl)ccc21 (relative stereo) [Example 10-4]                IC50          nM                  100
3  COc1ccccc1[C@H]1S[C@H](CC(=O)O)C(=O)N(CC(C)C)c2ccc(Cl)cc21 (relative stereo) [Example 10-7]                IC50          nM                   26

---

Target: squalene synthetase (Homo sapiens, UniProt P37268)
Construct: endogenous in cells
Sequence (P37268 whole entry): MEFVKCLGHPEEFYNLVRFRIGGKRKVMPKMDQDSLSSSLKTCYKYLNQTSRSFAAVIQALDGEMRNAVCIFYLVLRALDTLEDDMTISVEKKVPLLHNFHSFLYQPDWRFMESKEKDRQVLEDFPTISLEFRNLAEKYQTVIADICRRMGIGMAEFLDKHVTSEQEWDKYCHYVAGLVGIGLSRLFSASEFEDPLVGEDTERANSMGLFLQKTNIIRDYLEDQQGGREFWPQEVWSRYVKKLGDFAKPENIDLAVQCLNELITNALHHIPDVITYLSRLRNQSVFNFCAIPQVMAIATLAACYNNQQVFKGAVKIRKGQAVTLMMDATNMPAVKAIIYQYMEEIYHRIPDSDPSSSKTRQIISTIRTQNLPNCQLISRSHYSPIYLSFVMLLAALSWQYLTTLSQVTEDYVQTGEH
Experiment: Squalene synthetase inhibitory activity, human-derived enzyme (HepG2 microsome fraction)
Details: 5 uM [1-3H] farnesyl pyrophosphate, 37° C., 45 minutes
pIC50: −log10 of the molar value.
MEASURED_PARAMETER: pIC50

                                   compound  measured_parameter  experimental_result
0  CC(C)(C)CN1C(=O)[C@@H](CC(=O)O)S[C@H](c2ccccc2Cl)c2cc(Cl)ccc21 (relative stereo) [Example 9]               pIC50                 7.41
1  CCCN1C(=O)[C@@H](CC(=O)O)S[C@H](c2ccccc2OC)c2cc(Cl)ccc21 (relative stereo) [Example 10-6]               pIC50                 7.51
2  CC(C)CN1C(=O)C(CC(=O)O)CC(c2ccccc2Cl)c2cc(Cl)ccc21 (stereo not shown) [Example 26]               pIC50                 6.92
3  COc1ccccc1[C@H]1O[C@H](CC(=O)O)C(=O)N(CC(C)(C)C)c2sc(Cl)cc21 (relative stereo) [Example 33]               pIC50                 7.14

---

Target: squalene synthetase (Homo sapiens, UniProt P37268)
Construct: endogenous in cells
Assay: Squalene synthetase inhibitory activity, human-derived enzyme (HepG2 microsome fraction)
Details: 5 uM [1-3H] farnesyl pyrophosphate, 37° C., 45 minutes
Method: Assay Method of Squalene Synthetase Inhibitory Activity The squalene synthetase inhibitory activity was assayed as follows with the enzyme solutions described in the subsequent Experimental Examples 1 and 2. […]
Property: IC50; scope: individual compounds
MEASURED_PARAMETER: IC50

>>> print(df.to_string())
                                   compound  measured_parameter  experimental_result
0  COc1cccc([C@H]2S[C@H](Cc3nnn[nH]3)C(=O)N(CC(C)(C)C)c3ccc(Cl)cc32)c1OC                IC50              0.01 µM
1  COc1ccccc1C1SC(CC(=O)O)C(=O)N(CC(C)(C)C)c2ccc(Cl)cc21 (stereo not shown)                IC50             0.013 µM
2  COC(=O)C[C@H]1S[C@H](c2ccccc2OC)c2cc(Cl)ccc2N(CC(C)C)C1=O (relative stereo)                IC50                 2 µM
3  CC(C)(C)CN1C(=O)[C@@H](CC(=O)NCC(=O)O)S[C@H](c2ccccc2Cl)c2cc(Cl)ccc21 (relative stereo)                IC50             0.013 µM
4  CC(C)(C)CN1C(=O)N(CC(=O)O)CC(c2ccccc2Cl)c2cc(Cl)ccc21 (stereo not shown)                IC50              0.13 µM
5  CCCN1C(=O)[C@@H](CC(=O)O)S[C@H](c2ccccc2Cl)c2cc(Cl)ccc21 (relative stereo)                IC50             0.042 µM
6  COc1ccc([C@H]2S[C@H](CC(=O)O)C(=O)N(CC(C)(C)C)c3ccc(Cl)cc32)c(OC)c1                IC50             0.018 µM
